testedTarget: human sphingosine kinase type 2 (hSPHK2) (Homo sapiens)
Sequence (Q9NRA0 1-654): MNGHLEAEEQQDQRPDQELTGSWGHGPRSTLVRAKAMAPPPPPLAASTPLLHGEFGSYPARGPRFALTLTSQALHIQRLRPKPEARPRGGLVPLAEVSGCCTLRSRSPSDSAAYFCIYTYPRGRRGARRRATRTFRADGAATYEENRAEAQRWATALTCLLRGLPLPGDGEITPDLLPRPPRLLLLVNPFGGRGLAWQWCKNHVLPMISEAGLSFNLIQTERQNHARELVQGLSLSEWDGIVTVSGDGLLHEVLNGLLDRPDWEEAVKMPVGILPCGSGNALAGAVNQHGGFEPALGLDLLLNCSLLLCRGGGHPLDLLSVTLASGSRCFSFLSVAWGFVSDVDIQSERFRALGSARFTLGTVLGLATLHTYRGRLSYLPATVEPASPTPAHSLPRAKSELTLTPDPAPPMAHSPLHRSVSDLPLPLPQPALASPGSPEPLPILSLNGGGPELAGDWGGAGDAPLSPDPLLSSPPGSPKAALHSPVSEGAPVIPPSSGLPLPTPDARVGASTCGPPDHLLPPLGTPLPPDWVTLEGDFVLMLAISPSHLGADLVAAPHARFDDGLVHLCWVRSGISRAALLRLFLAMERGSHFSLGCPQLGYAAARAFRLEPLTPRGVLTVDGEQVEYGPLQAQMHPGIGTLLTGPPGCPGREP
protocolNotes: Sphingosine kinase assay, recombinant human SPHK2 ([32P]S1P product, scintillation counting)
experimentalParameters: read-out: activity hSPHK2 (range estimate of KI)
Structures can show the parent of a compound that is named as a salt.
Answer each item with its documented Ki.

Exercise: # query: Ki of entry CCCCC=CCOc1ccc(-c2noc([C@@H]3CCCN3C(=N)N)n2)cc1C(F)(F)F [Compound 81A, 2,2,2-trifluoroacetate]
Key: < 1000 nM

Exercise: Then N=C(N)N1CCC[C@H]1c1nc(-c2ccc3cc(OCc4ccc(Cl)cc4)ccc3c2)no1 [Compound 69A] ?
Key: > 10000 nM

Exercise: Then N=C(N)N1CCC[C@H]1c1nc(-c2ccc(OCC/C=C/c3ccc(C(F)(F)F)cc3)c(C(F)(F)F)c2)no1 [Compound 91A, hydrochloride] ?
Key: < 1000 nM

Exercise: Then N=C(N)N1CCC[C@H]1c1nc(-c2ccc(OCCCc3ccc(Cl)c(Cl)c3)c(C(F)(F)F)c2)no1 [Compound 30A] ?
Key: < 1000 nM

Exercise: Then N=C(N)N1CCC[C@H]1c1nc(-c2ccc3cc(OCc4ccccc4)ccc3c2)no1 [Compound 73A] ?
Key: > 10000 nM

Exercise: Then CCCOc1ccc(CCc2ccc(-c3noc([C@@H]4CCCN4C(=N)N)n3)cc2C(F)(F)F)cc1 [Compound 94A, hydrochloride] ?
Key: < 1000 nM

Exercise: Then N=C(N)N1CC[C@H](O)[C@H]1c1nc(-c2ccc(OCCCc3ccc4c(c3)OCCO4)c(C(F)(F)F)c2)no1 [Compound 27A] ?
Key: 1000 to 10000 nM
